Tested on: Heliothis virescens
Experiment: Action against Heliothis virescens caterpillars (sprayed soybean plants)
Format: in vivo
Conditions: 144 h, read-out: percentage reduction in population and percentage reduction in feeding damage (% activity)
endpoint_label: inhibition at 400 ppm

>>> print(df.to_string())
                                        smi  assay_value
0  O=[N+]([O-])c1cccc(COCc2c(Cl)cc(OCC=C(Cl)Cl)cc2Cl)c1        > 80%
1  ClC(Cl)=CCOc1cc(Cl)c(COCc2cnc(Cl)c(Cl)c2)c(Cl)c1        > 80%
2  C#CCOc1cccc(OCc2c(Cl)cc(OCC=C(Cl)Cl)cc2Cl)c1        > 80%
3  ClC(Cl)=CCOc1cc(Cl)c(COc2ccnc3cc(Cl)ccc23)c(Cl)c1        > 80%

====

endpoint_label: melting point

                                        smi  endpoint_label    assay_value
0  O=C(OCc1c(Cl)cc(OCC=C(Cl)Cl)cc1Cl)C1(c2ccc(F)cc2F)CC1   melting point    63 to 64 °C
1  O=C(NCc1c(Cl)cc(OCC=C(Cl)Cl)cc1Cl)Nc1ccccc1C(F)(F)F   melting point  215 to 216 °C
2  O=C(OCc1c(Cl)cc(OCC=C(Cl)Cl)cc1Cl)C1(c2ccc([N+](=O)[O-])cc2)CC1   melting point  107 to 108 °C
3  Cc1nsc(Oc2ccc(OCCOCc3c(Cl)cc(OCC=C(Cl)Cl)cc3Cl)cc2)n1   melting point    95 to 97 °C
